testedSystem: Carbonic anhydrase 14 (Homo sapiens, UniProt Q9ULX7)
Sequence (Q9ULX7 whole entry): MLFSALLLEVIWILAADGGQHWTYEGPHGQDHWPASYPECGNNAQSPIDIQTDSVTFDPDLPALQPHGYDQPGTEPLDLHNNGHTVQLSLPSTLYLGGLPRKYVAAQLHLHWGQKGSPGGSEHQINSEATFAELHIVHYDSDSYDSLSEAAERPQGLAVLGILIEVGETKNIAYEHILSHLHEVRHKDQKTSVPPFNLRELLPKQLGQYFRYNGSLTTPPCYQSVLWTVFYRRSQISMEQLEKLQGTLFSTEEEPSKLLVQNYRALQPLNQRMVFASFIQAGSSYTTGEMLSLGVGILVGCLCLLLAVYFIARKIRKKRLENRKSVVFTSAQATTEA
pKi: −log10 of the molar value.
measuredMetric: pKi

In the examples that follow, each entry is paired with its recorded pKi.
{"compound": "Nc1ccc(S(N)(=O)=O)cc1 [SULFANILAMIDE]", "testedSystem": "Carbonic anhydrase 14 (Homo sapiens, UniProt Q9ULX7)", "measuredMetric": "pKi", "recordedNumber": 5.27}
{"compound": "NNc1ccc(S(N)(=O)=O)cc1", "testedSystem": "Carbonic anhydrase 14 (Homo sapiens, UniProt Q9ULX7)", "measuredMetric": "pKi", "recordedNumber": 5.84}
{"compound": "Nc1nnc(S(N)(=O)=O)s1", "testedSystem": "Carbonic anhydrase 14 (Homo sapiens, UniProt Q9ULX7)", "measuredMetric": "pKi", "recordedNumber": 6.55}
{"compound": "NS(=O)(=O)c1ccc(CCO)cc1", "testedSystem": "Carbonic anhydrase 14 (Homo sapiens, UniProt Q9ULX7)", "measuredMetric": "pKi", "recordedNumber": 5.49}
{"compound": "NCc1ccc(S(N)(=O)=O)cc1 [MAFENIDE]", "testedSystem": "Carbonic anhydrase 14 (Homo sapiens, UniProt Q9ULX7)", "measuredMetric": "pKi", "recordedNumber": 5.49}

1 = Nc1nccc(Nc2ccc(S(N)(=O)=O)cc2)n1
2 = Nc1ccccc1S(N)(=O)=O
3 = CCN[C@H]1CN(CCCOC)S(=O)(=O)c2sc(S(N)(=O)=O)cc21 [BRINZOLAMIDE]
4 = Nc1ccc(S(N)(=O)=O)cc1F
List from greatest to least pKi. Rank the items, then write their labels in that order.
3, 1, 4, 2

P = NS(=O)(=O)c1ccc(C(=O)O)cc1 [CARZENIDE]
Q = Nc1ccc(S(N)(=O)=O)cc1Br
R = Nc1ccc(S(=O)(=O)NCCc2ccc(S(N)(=O)=O)cc2)cc1
Please list these in order of increasing pKi. Thank you! List the labels according to the requested ordering.
P, R, Q
(P: 6.11, R: 7.12, Q: 7.82)
